The origin of these recorded values is ChEMBL document CHEMBL1201862.

# Tested on: SF-295
# method summary: NCI tumour cell line growth inhibition, 48 h
Activity calls are given as the source filed them. No stated cut-off is given here; in the data, active = GI50 up to about 1.1 µM and inactive = higher.
Answer each item with its documented GI50.

Guide cases for GI50, answers given:
compound=CN(C)c1ccc(/N=C2/C=CC(=C(C#N)C#N)c3ccccc32)cc1 result_value="0.291 µM (active)"
compound=CNC(=O)c1cc(NC(=O)N(CCC#N)CCN(C(=O)N[C@@H](Cc2ccccc2)C(=O)N[C@@H](CC(C)C)C(=O)NC)c2ccccc2)ccc1OC result_value="> 79.3 µM (inactive)"
compound="CC1CN=C(N(Cc2ccc(F)cc2)C(=O)Nc2ccc(Cl)cc2)S1 (configuration not stated)" result_value="27.7 µM (inactive)"
compound=COC(=NCCC1=CCCCC1)OC result_value="> 100 µM (inactive)"

// for each compound below, give its GI50
1. O=C1CCCCCCCCCCC1CN(Cc1ccccc1)Cc1ccccc1 (configuration not stated)
2. COc1ccccc1/C=C1\Sc2scc(-c3ccc(O)c(O)c3)[n+]2C1=O
3. COc1cc(OC)c2c(=O)c3cccc(C)c3n(C)c2c1
4. c1cc(CCN2CCCCC2)ccn1
5. NC1CCCCC1.O=C(CP(=O)(O)O)NC(CC(=O)OCc1ccccc1)C(=O)OCc1ccccc1 (configuration not stated)

Ans:
1: 32.6 µM (inactive); 2: 24.9 µM (inactive); 3: 57.7 µM (inactive); 4: > 100 µM (inactive); 5: > 100 µM (inactive)

// for each compound below, give its GI50
1. C=C1C(=O)OC2CC1C(O)C/C(C)=C/CC/C(C)=C/C(O)CC2C (configuration not stated)
2. CCCCCCCCCCCCCCCCSS(C)(=O)=O
3. CC(=O)N1C(NN(C)C)CCN1c1ccccc1 (configuration not stated)
4. Nc1cc[nH]c(=O)n1
5. OC[C@H]1CC(c2nn[nH]n2)[C@H](O)[C@@H]1O (some centres not stated)

Ans:
1. 13.3 µM (inactive)
2. > 100 µM (inactive)
3. > 10 µM (inactive)
4. > 100 µM (inactive)
5. > 100 µM (inactive)

// for each compound below, give its GI50
1. CCOC(=O)C(=O)NNc1nc2c(s1)C(=O)c1ccccc1C2=O
2. CCCOC1OC(CS(=O)(=O)O)C(OC(C)=O)C(OC(C)=O)C1OC(C)=O (configuration not stated)
3. CCOC(=O)[C@H]1Nc2ccc(C)cc2C2c3ccccc3CC21 (some centres not stated)
4. CC(=O)Nc1ccc2[nH]c(C(=O)N3CC(CCl)c4c3cc(N)c3ccccc43)cc2c1 (configuration not stated)
5. Cc1cc(C)nc(NS(=O)(=O)c2ccc(NC(=O)COC(=O)c3cccc4c(=O)c5ccccc5[nH]c34)cc2)n1
6. CNNC1=NS(=O)(=O)c2cc(C(=O)OC)c(Cl)cc2S1
7. Cc1c2ccccc2c(CSC(=N)N)c2ccccc12

Ans:
1: 5.01 µM (inactive); 2: > 100 µM (inactive); 3: 74.1 µM (inactive); 4: 0.0135 µM (active); 5: 33.7 µM (inactive); 6: > 10 µM (inactive); 7: 0.271 µM (active)

With SF-295 as the test system, CCOC(=O)CN.CCOC(=O)Nc1ccc(S(=O)(=O)OC)cc1.CCOC(=O)Nc1ccc(S(=O)(=O)OC)cc1 showed GI50 of > 50 µM (inactive)
